test system: HL-60(TB) leukemia; test: NCI tumour cell line growth inhibition, 48 h; in the data active means GI50 below about 0.43 µM; inactive means the rest
Write down one outcome, taken from TRUE = active, FALSE = inactive

Consider the worked cases shown below.
INSERT INTO assay_data (item_smiles, measured_on, category_label) VALUES
  ('[Au+].[Au+].[Au+].[c-]1nccn1Cc1ccccc1.[c-]1nccn1Cc1ccccc1.[c-]1nccn1Cc1ccccc1', 'HL-60(TB) leukemia', 'FALSE'),
  ('COc1ccc(-c2ccc(/C=N/n3c(C)n[nH]c3=S)o2)c([N+](=O)[O-])c1', 'HL-60(TB) leukemia', 'FALSE'),
  ('COc1cc2c(c(OC)n1)[C@]1(O)[C@H](O)[C@H](CN(C)C)[C@@H](c3ccccc3)[C@]1(c1ccc(C#N)cc1)O2', 'HL-60(TB) leukemia', 'TRUE'),
  ('Nc1nc(SN=Nc2ccc(S(N)(=O)=O)cc2)c2[nH]cnc2n1', 'HL-60(TB) leukemia', 'FALSE'),
  ('COc1cc2ncn(-c3cc(OCCc4ccccc4)c(C(N)=O)s3)c2cc1OC', 'HL-60(TB) leukemia', 'FALSE'),
  ('O=[N+]([O-])c1ccc2c(c1)C(c1ccccc1Cl)=Nc1cn[nH]c1N2', 'HL-60(TB) leukemia', 'FALSE'),
  ('C1C[OH+]CCNCC[OH+]CC[OH+]CCN1.[Cl-].[Pt+4]', 'HL-60(TB) leukemia', 'FALSE');

*Q* Answer briefly: the call reported for "CC(=O)O[C@H](C[C@H](C(C)C)N(C)C(=O)[C@@H](NC(=O)[C@H]1CCCCN1C)C(C)C)c1nc(C(=O)N[C@@H](Cc2ccccc2)C[C@H](C)C(=O)O)c(CCOCc2ccccc2)s1" in this assay.
*A* TRUE
